Species: Homo sapiens
Experiment: Selectivity ratio of Ki for human ADRA1A receptor to Ki for human dopamine D3 receptor
I'd appreciate it if you marked entries Fulfilled when Ratio Ki is lower than 4 and Not fulfilled when it is not.

Use the examples below as a reference point.
[
  {
    "Given smiles": "COc1ccccc1N1CCN(CCCCNC(=O)N2CCOCC2)CC1",
    "Assigned label": "Not fulfilled"
  },
  {
    "Given smiles": "COc1ccccc1N1CCN(CCCCNC(=O)C2CCCCC2)CC1",
    "Assigned label": "Not fulfilled"
  },
  {
    "Given smiles": "COc1ccccc1N1CCN(CCCCCOc2ccc3ccccc3c2)CC1",
    "Assigned label": "Fulfilled"
  }
]

Here's the next entry for you.
State whether 4 exceeds Ratio Ki recorded for Cc1ccccc1N1CCN(CCCCNC(=O)c2ccc3ccccc3c2)CC1 .
Not fulfilled

----------
Biological target: D(2) dopamine receptor (Homo sapiens, UniProt P14416)
Sequence (P14416 whole entry): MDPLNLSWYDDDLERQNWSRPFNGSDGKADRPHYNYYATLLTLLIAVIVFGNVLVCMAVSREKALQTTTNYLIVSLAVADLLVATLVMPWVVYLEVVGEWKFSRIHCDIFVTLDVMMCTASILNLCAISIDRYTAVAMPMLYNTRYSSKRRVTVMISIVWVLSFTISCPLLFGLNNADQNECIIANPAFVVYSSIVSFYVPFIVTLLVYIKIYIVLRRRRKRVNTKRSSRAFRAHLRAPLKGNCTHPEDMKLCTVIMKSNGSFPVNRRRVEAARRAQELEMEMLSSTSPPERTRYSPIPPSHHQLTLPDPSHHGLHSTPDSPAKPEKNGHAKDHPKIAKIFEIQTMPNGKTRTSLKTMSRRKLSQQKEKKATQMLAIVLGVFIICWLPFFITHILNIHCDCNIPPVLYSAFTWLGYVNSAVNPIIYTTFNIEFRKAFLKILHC
Assay: Displacement of [3H]-spiperone from human dopamine D2S receptor expressed in HEK293 cell membranes
Conditions: read-out: Ki
This section presents molecules with their documented Ki values.
Use nM as the unit, but write only the number.

Example molecules with recorded Ki:
[
  {
    "Given smiles": "CCOC(=O)Nc1cccc(N2CCN(CCCCNC(=O)c3ccc4ccccc4c3)CC2)c1",
    "Observed": 911
  },
  {
    "Given smiles": "O=C(NCCCCN1CCN(c2ccccc2O)CC1)c1ccc2ccccc2c1",
    "Observed": 5030
  },
  {
    "Given smiles": "Cc1cccc(N2CCN(CCCCNC(=O)c3ccc4ccccc4c3)CC2)c1C",
    "Observed": 302
  },
  {
    "Given smiles": "COc1ccccc1N1CCN(CCCCNC(=O)C2CCCCC2)CC1",
    "Observed": 168
  },
  {
    "Given smiles": "Cc1ccccc1N1CCN(CCCCNC(=O)c2ccc3ccccc3c2)CC1",
    "Observed": 404
  },
  {
    "Given smiles": "O=C(NCCCCN1CCN(c2ccccc2Cl)CC1)c1ccc2ccccc2c1",
    "Observed": 238
  }
]

# Ki measured on D(2) dopamine receptor (Homo sapiens, UniProt P14416) for item O=C(NCCCCN1CCN(c2ccc(Cl)cc2)CC1)c1ccc2ccccc2c1 = 12100

# Ki measured on D(2) dopamine receptor (Homo sapiens, UniProt P14416) for item COc1ccccc1N1CCN(CCCCNC(=O)Nc2cccc(Cl)c2)CC1 = 13

# Ki measured on D(2) dopamine receptor (Homo sapiens, UniProt P14416) for item O=C(NCCCCN1CCN(c2ccccc2F)CC1)c1ccc2ccccc2c1 = 310

# Ki measured on D(2) dopamine receptor (Homo sapiens, UniProt P14416) for item COc1ccccc1N1CCN(CCCCCOc2ccc3ccccc3c2)CC1 = 34

# Ki measured on D(2) dopamine receptor (Homo sapiens, UniProt P14416) for item O=C(NCCCCN1CCN(c2cccc(O)c2)CC1)c1ccc2ccccc2c1 = 373

# Ki measured on D(2) dopamine receptor (Homo sapiens, UniProt P14416) for item O=C(NCCCCN1CCN(c2cccc(Cl)c2)CC1)c1ccc2ccccc2c1 = 3320

# Ki measured on D(2) dopamine receptor (Homo sapiens, UniProt P14416) for item O=C(NCCCCN1CCN(c2cccc3[nH]c(=O)[nH]c23)CC1)c1ccc2ccccc2c1 = 131

# Ki measured on D(2) dopamine receptor (Homo sapiens, UniProt P14416) for item COc1ccccc1N1CCN(CCCCNC(=O)CC2CCCCC2)CC1 = 322

# Ki measured on D(2) dopamine receptor (Homo sapiens, UniProt P14416) for item O=C(NCCCCN1CCN(c2cccc3[nH]ccc23)CC1)c1ccc2ccccc2c1 = 95

Entry source: ChEMBL document CHEMBL3758127
